experiment: Blood levels in the mouse after oral administration; type: in vivo; conditions: blood, 100 mg/kg; mouse, oral, 100 mgm./kg., 0.5 hrs. after administration; read-out: Blood Level
log10(concentration at 0.5 h) listing for selected compounds.
Hello, just confirming the data are log10 of concentration at 0.5 h with units of ng/mL.

These solved cases illustrate the format of a correct answer.
compound="Cc1cnc(C(=O)SCC2=C(C(=O)O)N3C(=O)C(NC(=O)[C@H](N)c4ccccc4)[C@H]3SC2)s1 (stereo partly shown)" observed_value=4.54
compound="Cc1nc(C(=O)SCC2=C(C(=O)O)N3C(=O)C(NC(=O)[C@H](N)c4ccccc4)[C@H]3SC2)cs1 (stereo partly shown)" observed_value=3.08

IN: Recorded log10(concentration at 0.5 h) of N[C@@H](C(=O)NC1C(=O)N2C(C(=O)O)=C(CSC(=O)c3cscn3)CS[C@H]12)c1ccccc1 (stereo partly shown) , please.
OUT: 3.81

IN: Recorded log10(concentration at 0.5 h) of Cc1csc(C(=O)SCC2=C(C(=O)O)N3C(=O)C(NC(=O)[C@H](N)c4ccccc4)[C@H]3SC2)n1 (stereo partly shown) , please.
OUT: 4.18

IN: Recorded log10(concentration at 0.5 h) of N[C@@H](C(=O)NC1C(=O)N2C(C(=O)O)=C(CSC(=O)c3nccs3)CS[C@H]12)c1ccccc1 (stereo partly shown) , please.
OUT: 4.20

IN: Recorded log10(concentration at 0.5 h) of N[C@@H](C(=O)NC1C(=O)N2C(C(=O)O)=C(CSC(=O)c3cncs3)CS[C@H]12)c1ccccc1 (stereo partly shown) , please.
OUT: 4.07

IN: Recorded log10(concentration at 0.5 h) of Cc1nc(C(=O)SCC2=C(C(=O)O)N3C(=O)C(NC(=O)[C@H](N)c4ccccc4)[C@H]3SC2)sc1C (stereo partly shown) , please.
OUT: 3.80

----------
tested on: E. coli Juhl A15119; assay: M.I.C. by tube dilution; assay type: cell-based; conditions: Escherichia coli, JUHLA15119; at 10^-^4 dilution; overnight 37° C.; read-out: M.I.C.
value.type: MIC
Value and unit, in that order.

These solved cases illustrate the format of a correct answer.
molecule="N[C@@H](C(=O)NC1C(=O)N2C(C(=O)O)=C(CSC(=O)c3cncs3)CS[C@H]12)c1ccccc1 (some centres unmarked)" observed_value="4 µg/mL"
molecule="Cc1csc(C(=O)SCC2=C(C(=O)O)N3C(=O)C(NC(=O)[C@H](N)c4ccccc4)[C@H]3SC2)n1 (some centres unmarked)" observed_value="32 µg/mL"
molecule="Cc1nc(C(=O)SCC2=C(C(=O)O)N3C(=O)C(NC(=O)[C@H](N)c4ccccc4)[C@H]3SC2)cs1 (some centres unmarked)" observed_value="8 µg/mL"
molecule="N[C@@H](C(=O)NC1C(=O)N2C(C(=O)O)=C(CSC(=O)c3cscn3)CS[C@H]12)c1ccccc1 (some centres unmarked)" observed_value="1 µg/mL"

Turning now to a further record.
IN: Recorded MIC of Cc1nc(C(=O)SCC2=C(C(=O)O)N3C(=O)C(NC(=O)[C@H](N)c4ccccc4)[C@H]3SC2)sc1C (some centres unmarked) , please.
OUT: 16 µg/mL

----------
system: D. pneumoniae A9585; assay: M.I.C. by tube dilution; type: cell-based; settings: Streptococcus pneumoniae, D. pneumoniae + 5% serum, 50% Nutrient Broth - 45% Antibiotic Assay Broth, overnight 37° C.
value.type: log10(MIC) (log10 of the value in µg/mL)
Hello, just confirming the data are log10 of MIC with units of µg/mL.

molecule="N[C@@H](C(=O)NC1C(=O)N2C(C(=O)O)=C(CSC(=O)c3nccs3)CS[C@H]12)c1ccccc1 (stereo partly shown)" target_entity="D. pneumoniae A9585" observed_value=-1.40

IN: D. pneumoniae A9585 / log10(MIC) / N[C@@H](C(=O)NC1C(=O)N2C(C(=O)O)=C(CSC(=O)c3cscn3)CS[C@H]12)c1ccccc1 (stereo partly shown) : value?
OUT: -1.70

IN: D. pneumoniae A9585 / log10(MIC) / Cc1nc(C(=O)SCC2=C(C(=O)O)N3C(=O)C(NC(=O)[C@H](N)c4ccccc4)[C@H]3SC2)cs1 (stereo partly shown) : value?
OUT: -0.80

IN: D. pneumoniae A9585 / log10(MIC) / Cc1nc(C(=O)SCC2=C(C(=O)O)N3C(=O)C(NC(=O)[C@H](N)c4ccccc4)[C@H]3SC2)sc1C (stereo partly shown) : value?
OUT: 0.40

IN: D. pneumoniae A9585 / log10(MIC) / N[C@@H](C(=O)NC1C(=O)N2C(C(=O)O)=C(CSC(=O)c3cncs3)CS[C@H]12)c1ccccc1 (stereo partly shown) : value?
OUT: -0.22

IN: D. pneumoniae A9585 / log10(MIC) / Cc1cnc(C(=O)SCC2=C(C(=O)O)N3C(=O)C(NC(=O)[C@H](N)c4ccccc4)[C@H]3SC2)s1 (stereo partly shown) : value?
OUT: -0.80

IN: D. pneumoniae A9585 / log10(MIC) / Cc1csc(C(=O)SCC2=C(C(=O)O)N3C(=O)C(NC(=O)[C@H](N)c4ccccc4)[C@H]3SC2)n1 (stereo partly shown) : value?
OUT: 0.11

----------
assay: Blood levels in the mouse after oral administration; assay type: in vivo; conditions: blood, 100 mg/kg; mouse, oral, 100 mgm./kg., 3.5 hrs. after administration; read-out: Blood Level
value.type: concentration at 3.5 h (ng/mL)
Write it as a number; the unit ng/mL goes unstated.

These solved cases illustrate the format of a correct answer.
compound="Cc1nc(C(=O)SCC2=C(C(=O)O)N3C(=O)C(NC(=O)[C@H](N)c4ccccc4)[C@H]3SC2)sc1C (stereo partly shown) [Compound 587]" value_type="concentration at 3.5 h" observed_value=2000
compound="Cc1nc(C(=O)SCC2=C(C(=O)O)N3C(=O)C(NC(=O)[C@H](N)c4ccccc4)[C@H]3SC2)cs1 (stereo partly shown) [Compound 607]" value_type="concentration at 3.5 h" observed_value=1000
compound="N[C@@H](C(=O)NC1C(=O)N2C(C(=O)O)=C(CSC(=O)c3cncs3)CS[C@H]12)c1ccccc1 (stereo partly shown) [Compound 602]" value_type="concentration at 3.5 h" observed_value=3300

IN: Recorded concentration at 3.5 h of Cc1cnc(C(=O)SCC2=C(C(=O)O)N3C(=O)C(NC(=O)[C@H](N)c4ccccc4)[C@H]3SC2)s1 (stereo partly shown) [Compound 586] , please.
OUT: 7000

IN: Recorded concentration at 3.5 h of N[C@@H](C(=O)NC1C(=O)N2C(C(=O)O)=C(CSC(=O)c3cscn3)CS[C@H]12)c1ccccc1 (stereo partly shown) [Compound 591] , please.
OUT: 3200

----------
experiment: Blood levels in the mouse after oral administration; format: in vivo; details: blood, 100 mg/kg; mouse, oral, 100 mgm./kg., 2 hrs. after administration; read-out: Blood Level
value.type: concentration at 2 h (ng/mL)
Write it as a number; the unit ng/mL goes unstated.

These solved cases illustrate the format of a correct answer.
molecule="Cc1cnc(C(=O)SCC2=C(C(=O)O)N3C(=O)C(NC(=O)[C@H](N)c4ccccc4)[C@H]3SC2)s1 (stereo partly shown) [Compound 586]" value_type="concentration at 2 h" unit_info=ng/mL observed_value=13000
molecule="Cc1nc(C(=O)SCC2=C(C(=O)O)N3C(=O)C(NC(=O)[C@H](N)c4ccccc4)[C@H]3SC2)sc1C (stereo partly shown) [Compound 587]" value_type="concentration at 2 h" unit_info=ng/mL observed_value=4300
molecule="N[C@@H](C(=O)NC1C(=O)N2C(C(=O)O)=C(CSC(=O)c3nccs3)CS[C@H]12)c1ccccc1 (stereo partly shown) [Compound 567]" value_type="concentration at 2 h" unit_info=ng/mL observed_value=3400

Turning now to a further record.
IN: Recorded concentration at 2 h of Cc1csc(C(=O)SCC2=C(C(=O)O)N3C(=O)C(NC(=O)[C@H](N)c4ccccc4)[C@H]3SC2)n1 (stereo partly shown) [Compound 556] , please.
OUT: 7800

----------
tested on: Sal. enteritidis A9531; test: M.I.C. by tube dilution; type: cell-based; settings: Salmonella enterica, ENTERITIDIS; at 10^-^4 dilution; overnight 37° C.; read-out: M.I.C.
log10 MIC listing for selected compounds.
Hello, just confirming the data are log10 of MIC with units of µg/mL.

These solved cases illustrate the format of a correct answer.
compound="N[C@@H](C(=O)NC1C(=O)N2C(C(=O)O)=C(CSC(=O)c3nccs3)CS[C@H]12)c1ccccc1 (stereo partly shown)" target_entity="Sal. enteritidis A9531" observed_value=-1.10
compound="Cc1cnc(C(=O)SCC2=C(C(=O)O)N3C(=O)C(NC(=O)[C@H](N)c4ccccc4)[C@H]3SC2)s1 (stereo partly shown)" target_entity="Sal. enteritidis A9531" observed_value=-0.52
compound="Cc1nc(C(=O)SCC2=C(C(=O)O)N3C(=O)C(NC(=O)[C@H](N)c4ccccc4)[C@H]3SC2)sc1C (stereo partly shown)" target_entity="Sal. enteritidis A9531" observed_value=0.40
compound="N[C@@H](C(=O)NC1C(=O)N2C(C(=O)O)=C(CSC(=O)c3cscn3)CS[C@H]12)c1ccccc1 (stereo partly shown)" target_entity="Sal. enteritidis A9531" observed_value=-0.80
compound="Cc1nc(C(=O)SCC2=C(C(=O)O)N3C(=O)C(NC(=O)[C@H](N)c4ccccc4)[C@H]3SC2)cs1 (stereo partly shown)" target_entity="Sal. enteritidis A9531" observed_value=-0.22

IN: Sal. enteritidis A9531 / log10 MIC / N[C@@H](C(=O)NC1C(=O)N2C(C(=O)O)=C(CSC(=O)c3cncs3)CS[C@H]12)c1ccccc1 (stereo partly shown) : value?
OUT: -0.52

IN: Sal. enteritidis A9531 / log10 MIC / Cc1csc(C(=O)SCC2=C(C(=O)O)N3C(=O)C(NC(=O)[C@H](N)c4ccccc4)[C@H]3SC2)n1 (stereo partly shown) : value?
OUT: 0.00
